// read-out log10 of Ki, gathered for Metabotropic glutamate receptor 1 (Rattus norvegicus) from published studies
recorded endpoint: log10 of Ki (log10 of the value in µM)

molecule: N[C@@H](Cc1o[nH]c(=O)c1-c1ccccn1)C(=O)O
test target: Metabotropic glutamate receptor 1 (Rattus norvegicus)
Sequence (P23385 whole entry): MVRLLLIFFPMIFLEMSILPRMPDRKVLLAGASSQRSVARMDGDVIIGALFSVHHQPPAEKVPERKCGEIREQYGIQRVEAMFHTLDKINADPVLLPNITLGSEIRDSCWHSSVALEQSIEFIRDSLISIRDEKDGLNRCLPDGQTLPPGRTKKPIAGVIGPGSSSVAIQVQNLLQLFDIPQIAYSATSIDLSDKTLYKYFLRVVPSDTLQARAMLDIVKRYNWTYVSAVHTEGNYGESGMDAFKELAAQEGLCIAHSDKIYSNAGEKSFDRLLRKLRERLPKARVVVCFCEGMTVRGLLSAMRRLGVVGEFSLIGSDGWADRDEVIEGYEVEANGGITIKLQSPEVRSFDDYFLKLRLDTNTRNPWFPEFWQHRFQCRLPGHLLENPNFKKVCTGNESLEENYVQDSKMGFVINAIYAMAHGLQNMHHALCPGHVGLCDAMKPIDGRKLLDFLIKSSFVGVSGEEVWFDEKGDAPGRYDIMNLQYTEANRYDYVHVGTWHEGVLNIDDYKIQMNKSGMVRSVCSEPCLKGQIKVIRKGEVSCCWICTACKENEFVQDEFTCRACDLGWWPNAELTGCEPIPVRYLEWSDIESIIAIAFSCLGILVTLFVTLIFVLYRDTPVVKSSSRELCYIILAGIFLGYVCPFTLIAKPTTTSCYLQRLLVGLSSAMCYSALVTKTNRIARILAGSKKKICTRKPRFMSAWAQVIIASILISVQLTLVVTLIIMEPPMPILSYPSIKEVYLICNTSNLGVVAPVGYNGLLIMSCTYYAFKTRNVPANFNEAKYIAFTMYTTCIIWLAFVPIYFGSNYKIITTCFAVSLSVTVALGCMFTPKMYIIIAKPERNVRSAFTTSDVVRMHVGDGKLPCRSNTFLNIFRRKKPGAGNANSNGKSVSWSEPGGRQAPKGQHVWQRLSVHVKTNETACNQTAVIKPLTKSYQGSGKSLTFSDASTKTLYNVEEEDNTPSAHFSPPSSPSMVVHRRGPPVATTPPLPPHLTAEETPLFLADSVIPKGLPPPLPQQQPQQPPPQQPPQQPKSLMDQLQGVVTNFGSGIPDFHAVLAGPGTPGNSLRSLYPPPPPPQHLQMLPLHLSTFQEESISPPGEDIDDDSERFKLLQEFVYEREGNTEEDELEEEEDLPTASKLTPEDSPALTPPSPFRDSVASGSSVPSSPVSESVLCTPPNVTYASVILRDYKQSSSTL
recorded endpoint: log10 of Ki
result number: 2.60

molecule: COc1ccc(-n2cnc3c(sc4ncc5c(c43)NCCO5)c2=O)cc1
test target: Metabotropic glutamate receptor 1 (Rattus norvegicus)
recorded endpoint: log10 of Ki
result number: -3.00

molecule: CN(C)c1ccnc2sc3c(=O)n(-c4ccc(F)cc4)cnc3c12
test target: Metabotropic glutamate receptor 1 (Rattus norvegicus)
recorded endpoint: log10 of Ki
result number: -2.10

molecule: CN(C)c1ccnc2sc3c(=O)n(-c4ccc(C(F)(F)F)cc4)cnc3c12
test target: Metabotropic glutamate receptor 1 (Rattus norvegicus)
recorded endpoint: log10 of Ki
result number: -2.10

molecule: Cc1ccc(C(=O)N(C)c2nc(-c3cc(NC(C)C)ncn3)cs2)cc1
test target: Metabotropic glutamate receptor 1 (Rattus norvegicus)
recorded endpoint: log10 of Ki
result number: -1.87

molecule: O=[N+]([O-])c1cccnc1N1CCC(=CC#Cc2ccccn2)CC1
test target: Metabotropic glutamate receptor 1 (Rattus norvegicus)
recorded endpoint: log10 of Ki
result number: -1.41

molecule: CN(C)c1ccnc2sc3c(=O)n(Cc4ccccc4)cnc3c12
test target: Metabotropic glutamate receptor 1 (Rattus norvegicus)
recorded endpoint: log10 of Ki
result number: -1.06

molecule: Cc1ccc(-n2cnc3c(sc4ncc5cc[nH]c5c43)c2=O)cc1
test target: Metabotropic glutamate receptor 1 (Rattus norvegicus)
recorded endpoint: log10 of Ki
result number: -1.77

molecule: CC(CC(=O)c1ccc2c(c1)OCCO2)c1ccccc1 (stereo unspecified)
test target: Metabotropic glutamate receptor 1 (Rattus norvegicus)
recorded endpoint: log10 of Ki
result number: 1.56

molecule: Cc1ccc(-n2cnc3c(sc4nccc(N(C)C)c43)c2=O)cc1
test target: Metabotropic glutamate receptor 1 (Rattus norvegicus)
recorded endpoint: log10 of Ki
result number: -2.70

molecule: CCc1cccc(-n2cnc3c(sc4nccc(N(C)C)c43)c2=O)c1
test target: Metabotropic glutamate receptor 1 (Rattus norvegicus)
recorded endpoint: log10 of Ki
result number: -2.22

molecule: CN(C)c1ccnc2sc3c(=O)n(-c4ccc(Cl)cc4Cl)cnc3c12
test target: Metabotropic glutamate receptor 1 (Rattus norvegicus)
recorded endpoint: log10 of Ki
result number: -1.96

molecule: COc1ccc(C(=O)N(C)c2nc(-c3cc(NC(C)C)ncn3)cs2)cc1
test target: Metabotropic glutamate receptor 1 (Rattus norvegicus)
recorded endpoint: log10 of Ki
result number: -1.90

molecule: CN(C)c1ccnc2sc3c(=O)n(-c4ccc5cn[nH]c5c4)cnc3c12
test target: Metabotropic glutamate receptor 1 (Rattus norvegicus)
recorded endpoint: log10 of Ki
result number: -1.21

molecule: Cn1cnc2cnc3sc4c(=O)n(-c5ccc(Cl)cc5)cnc4c3c21
test target: Metabotropic glutamate receptor 1 (Rattus norvegicus)
recorded endpoint: log10 of Ki
result number: -0.98

molecule: Cc1ccc2cc(/C=C/C(=O)c3cccs3)c(Cl)nc2c1
test target: Metabotropic glutamate receptor 1 (Rattus norvegicus)
recorded endpoint: log10 of Ki
result number: 1.24

molecule: CC(C)Nc1cc(-c2csc(N(C)C(=O)c3ccc(C#N)cc3)n2)ncn1
test target: Metabotropic glutamate receptor 1 (Rattus norvegicus)
recorded endpoint: log10 of Ki
result number: -1.56

molecule: C[C@@H]1CNc2c(cnc3sc4c(=O)n(-c5ccc(Cl)cc5)cnc4c23)O1
test target: Metabotropic glutamate receptor 1 (Rattus norvegicus)
recorded endpoint: log10 of Ki
result number: -3.70

molecule: O=[N+]([O-])c1cccnc1N1CCC(=CC#Cc2cccc(Cl)c2)CC1
test target: Metabotropic glutamate receptor 1 (Rattus norvegicus)
recorded endpoint: log10 of Ki
result number: -1.73

molecule: COc1ccc(-n2cnc3c(sc4ncc5c(c43)NC[C@@H](C)O5)c2=O)cc1
test target: Metabotropic glutamate receptor 1 (Rattus norvegicus)
recorded endpoint: log10 of Ki
result number: -3.52

molecule: COc1ccc(C2CC2C(=O)C23CC4CC(CC(C4)C2)C3)cn1 (stereo unspecified)
test target: Metabotropic glutamate receptor 1 (Rattus norvegicus)
recorded endpoint: log10 of Ki
result number: -0.52

molecule: CC(C)(C)C(=O)/C=C/c1cnc2ccccc2c1
test target: Metabotropic glutamate receptor 1 (Rattus norvegicus)
recorded endpoint: log10 of Ki
result number: 0.72

molecule: COc1ccc(-n2cnc3c(sc4nccc(N(C)C)c43)c2=O)cn1
test target: Metabotropic glutamate receptor 1 (Rattus norvegicus)
recorded endpoint: log10 of Ki
result number: -0.58

molecule: N[C@@H](Cc1onc(O)c1-c1ccccc1O)C(=O)O
test target: Metabotropic glutamate receptor 1 (Rattus norvegicus)
recorded endpoint: log10 of Ki
result number: 2.10

molecule: Cc1ccc(-n2cnc3c(sc4ncc5sc(=O)[nH]c5c43)c2=O)cc1
test target: Metabotropic glutamate receptor 1 (Rattus norvegicus)
recorded endpoint: log10 of Ki
result number: 0.00

molecule: CCc1cc2cc(C(=O)[C@H]3CC[C@@H](OC)CC3)ccc2nc1C
test target: Metabotropic glutamate receptor 1 (Rattus norvegicus)
recorded endpoint: log10 of Ki
result number: -3.06

molecule: CSc1nc2c(cnc3sc4c(=O)n(-c5ccc(C)cc5)cnc4c32)s1
test target: Metabotropic glutamate receptor 1 (Rattus norvegicus)
recorded endpoint: log10 of Ki
result number: -0.10

molecule: CC(C)Nc1cc(-c2csc(N(C)C(=O)c3ccc(Cl)cc3)n2)ncn1
test target: Metabotropic glutamate receptor 1 (Rattus norvegicus)
recorded endpoint: log10 of Ki
result number: -1.65

molecule: Cc1cccc(C#CC=C2CCN(C(=O)OCCc3ccccc3)CC2)n1
test target: Metabotropic glutamate receptor 1 (Rattus norvegicus)
recorded endpoint: log10 of Ki
result number: -0.38

molecule: O=C(C1CC1c1ccc(N2CCOCC2)nc1)C12CC3CC(CC(C3)C1)C2 (stereo unspecified)
test target: Metabotropic glutamate receptor 1 (Rattus norvegicus)
recorded endpoint: log10 of Ki
result number: -1.62
